System: Staphylococcus aureus
EXPERIMENTAL_DETAILS: Antibacterial activity against Staphylococcus aureus after 18 hrs by microdilution assay
Assay type: functional
Listed compounds paired with reported MIC
RESULT_TYPE: MIC

compound=CC1(C)COc2c(NCCNc3ccccn3)c(F)c(N)c3c(=O)c(C(=O)O)cn(c23)C1 result_type=MIC value_measured="> 7 µM"
compound=Nc1c(F)c(NCCNc2ccccn2)c2c3c1c(=O)c(C(=O)O)cn3C1(CCC1)CO2 result_type=MIC value_measured="> 36 µM"
compound=CC1(C)Cn2cc(C(=O)O)c(=O)c3c(N)c(F)c(NCCNc4ccccn4)c(c32)O1 result_type=MIC value_measured="> 37 µM"
compound=COc1c(NCCNc2ccccn2)c(F)c(N)c2c(=O)c(C(=O)O)cn(CCC(C)C)c12 result_type=MIC value_measured="> 28 µM"
compound=CC(C)[C@@H]1COc2c(NCCNc3ccccn3)c(F)c(N)c3c(=O)c(C(=O)O)cn1c23 result_type=MIC value_measured="> 2 µM"
compound=Nc1c(F)c(NCCNc2ccccn2)c(F)c2c1c(=O)c(C(=O)O)cn2C1CCCC1 result_type=MIC value_measured="> 29 µM"
